// reported inhibition at 1 µM for each item listed
study-system: FAAH (Mus musculus (Mouse), UniProt O08914)
Sequence (O08914 whole entry): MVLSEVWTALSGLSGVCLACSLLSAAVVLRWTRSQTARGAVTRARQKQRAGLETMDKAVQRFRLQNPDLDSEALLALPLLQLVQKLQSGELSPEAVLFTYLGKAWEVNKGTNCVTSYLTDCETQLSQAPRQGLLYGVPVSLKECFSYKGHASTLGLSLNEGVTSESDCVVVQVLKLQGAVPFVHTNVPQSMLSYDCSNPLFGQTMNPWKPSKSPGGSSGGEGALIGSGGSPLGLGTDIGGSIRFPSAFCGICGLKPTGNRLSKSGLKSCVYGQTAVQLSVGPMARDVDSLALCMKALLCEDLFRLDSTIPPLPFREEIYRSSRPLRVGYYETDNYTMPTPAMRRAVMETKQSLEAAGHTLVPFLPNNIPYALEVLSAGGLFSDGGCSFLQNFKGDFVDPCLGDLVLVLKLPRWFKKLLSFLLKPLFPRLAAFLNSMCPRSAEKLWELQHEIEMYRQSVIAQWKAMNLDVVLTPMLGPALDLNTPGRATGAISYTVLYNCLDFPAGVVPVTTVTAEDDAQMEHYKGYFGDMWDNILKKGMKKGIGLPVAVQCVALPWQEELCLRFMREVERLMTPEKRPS
assay-notes: In vitro competitive activity-based protein profiling, FAAH (mouse)
Assay type: biochemical
study-conditions: 1 μM, read-out: FAAH % inh. 1 μM (mouse)

Example cases with answers are listed next.
{"columns": ["compound", "inhibition at 1 µM"],
 "data": [
  ["CC(=O)N(C)c1cnn(C(=O)N2CCC3(CC2)CN(Cc2ccccc2Cl)C3)c1", "≥ 75%"],
  ["CC(=O)N(C)c1cnn(C(=O)N2CCC3(CCN(Cc4ccc(-c5ncccn5)cc4Cl)C3)C2)c1 (stereo not shown)", "≥ 75%"],
  ["CC(=O)N(C)c1cnn(C(=O)N2CCC3(CCN(Cc4ccc(N5CCOCC5)cc4)C3)C2)c1 (stereo not shown)", "50 to 75%"],
  ["CC(=O)N(C)c1cnn(C(=O)N2CCC3(CCN(Cc4ccc(-c5cncnc5)cc4Cl)C3)C2)c1 (stereo not shown)", "≥ 75%"],
  ["CC(=O)N(C)c1cnn(C(=O)N2CC3(CCN(Cc4ccc(N5CCOCC5)cc4)CC3)C2)c1", "25 to 50%"]
]}

input: Record lookup: for FAAH (Mus musculus (Mouse), UniProt O08914), what inhibition at 1 µM belongs to CC(=O)N(C)c1cnn(C(=O)N2CC3CN(Cc4ccc(-c5nccs5)cc4Cl)CC3C2)c1 (stereo not shown) ?
output: ≥ 75%

input: Record lookup: for FAAH (Mus musculus (Mouse), UniProt O08914), what inhibition at 1 µM belongs to CC(=O)N(C)c1cnn(C(=O)N2CCN(Cc3cccc(N4CCCC4)c3)CC2)c1 ?
output: ≥ 75%

These measurements were taken from patent US10323038B2.
